target: Eukaryotic translation initiation factor 4E (Mus musculus, UniProt P63073); assay: eIF4E–eIF4G protein interaction inhibitors, dose response, biochemical, TR-FRET (AID 855); assay type: functional;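 further: potency for disrupting eIF4E binding to eIF4GI seen as loss of FRET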
Sequence (P63073 whole entry): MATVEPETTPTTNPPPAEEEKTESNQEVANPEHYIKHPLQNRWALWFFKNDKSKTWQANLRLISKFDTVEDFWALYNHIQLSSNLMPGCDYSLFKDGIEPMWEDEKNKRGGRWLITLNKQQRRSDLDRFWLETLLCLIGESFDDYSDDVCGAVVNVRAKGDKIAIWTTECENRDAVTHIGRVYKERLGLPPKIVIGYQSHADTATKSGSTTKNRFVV
Calls of active or inactive are those of the source. How the calls were made is not given here.
assay-readout: IC50

Consider the following illustrative entries.
# compound-smiles, IC50
rows = [
    ("Cc1ccc(NC(=O)CN2C(=O)S/C(=C/c3ccc(-c4cc(C(=O)O)ccc4C)o3)C2=O)cc1C", "14.4 µM (active)"),
    ("C=CCN1C(=O)CS/C1=N\\c1cccc(O)c1", "> 64 µM (inactive)"),
    ("Cc1cc(/C=C2/C(=N)N3C(=NC2=O)SN=C3S(C)(=O)=O)c(C)n1-c1ccccc1F", "50 µM (inactive)"),
    ("Cc1ccc(C)c(NC(S)=NCCN(C2CCCCC2)C2CCCC2)c1", "50 µM (inactive)"),
    ("C=CCn1c(S)nnc1-c1ccco1", "> 64 µM (inactive)"),
]

With those in mind, consider the next compound.
Q: Fill in: IC50 on Eukaryotic translation initiation factor 4E (Mus musculus, UniProt P63073), entry "COc1ccc(Cc2nnc(NC(=O)Cc3cccs3)s2)cc1"
Result: 16.9 µM (active)
